- TGT: Beta-2 adrenergic receptor (Homo sapiens, UniProt P07550)
- Sequence (P07550 whole entry): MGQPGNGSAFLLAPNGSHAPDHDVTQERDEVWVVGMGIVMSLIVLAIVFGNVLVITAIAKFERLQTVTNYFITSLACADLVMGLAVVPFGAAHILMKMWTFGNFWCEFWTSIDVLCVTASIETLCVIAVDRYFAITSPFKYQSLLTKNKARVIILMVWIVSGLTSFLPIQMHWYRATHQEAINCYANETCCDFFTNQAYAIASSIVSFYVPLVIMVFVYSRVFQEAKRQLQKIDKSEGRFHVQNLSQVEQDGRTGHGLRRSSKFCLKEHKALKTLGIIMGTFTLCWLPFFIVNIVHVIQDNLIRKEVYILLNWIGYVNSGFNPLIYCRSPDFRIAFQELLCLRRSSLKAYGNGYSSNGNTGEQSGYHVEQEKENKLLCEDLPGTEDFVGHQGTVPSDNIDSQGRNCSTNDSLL
- PROTOCOL_DESCRIPTION: Agonist activity at adrenergic beta-2 receptor
Entries and their measured pEC50 follow.
Please report pEC50 as the negative decimal logarithm of the molar concentration, giving only the number.

COMPOUND	pEC50
CC(C)NCC(O)COc1ccc2c(c1)CCCN2Cc1ccccc1 (configuration not stated)	5.94

Field: next compound
Inquiry: Look up pEC50: COc1ccc(CCNCC(O)COc2ccc3c(c2)CCCN3Cc2ccccc2)cc1 (configuration not stated)
Reply text: 5.23

###

Entries and their measured pEC50 follow.
- TGT: Beta-1 adrenergic receptor (Homo sapiens)
- Sequence (P08588 whole entry): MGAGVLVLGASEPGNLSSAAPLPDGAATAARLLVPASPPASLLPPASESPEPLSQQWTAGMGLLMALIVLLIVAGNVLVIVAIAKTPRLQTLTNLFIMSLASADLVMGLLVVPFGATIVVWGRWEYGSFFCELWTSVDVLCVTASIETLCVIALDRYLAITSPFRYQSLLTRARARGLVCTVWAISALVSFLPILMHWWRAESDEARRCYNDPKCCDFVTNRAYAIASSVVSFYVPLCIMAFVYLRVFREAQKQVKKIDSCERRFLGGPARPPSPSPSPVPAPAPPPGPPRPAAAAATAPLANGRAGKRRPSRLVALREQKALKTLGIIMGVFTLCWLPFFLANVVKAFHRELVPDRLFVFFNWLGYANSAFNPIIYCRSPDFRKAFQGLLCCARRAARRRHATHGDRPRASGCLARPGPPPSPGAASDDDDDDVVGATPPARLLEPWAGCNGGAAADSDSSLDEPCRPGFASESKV
- PROTOCOL_DESCRIPTION: Agonist activity at adrenergic beta-1 receptor
Please report pEC50 as the negative decimal logarithm of the molar concentration, giving only the number.

MOLECULE	REPORTED_ENDPOINT	MEAS_VALUE
CC(C)NCC(O)COc1ccc2c(c1)CCCN2Cc1ccccc1 (configuration not stated)	pEC50	5.69

Field: next molecule
Inquiry: Look up pEC50: COc1ccc(CCNCC(O)COc2ccc3c(c2)CCCN3Cc2ccccc2)cc1 (configuration not stated)
Reply text: 5.14
